tested on: THRa homodimer (NR concentration 90 nM); assay: PBM binding z-score (relative to random genomic background probes); higher = stronger binding; sequences stand for … in GC…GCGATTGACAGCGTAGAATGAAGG
Recorded PBM binding z-score, one value per entry.
A bare number is all that is needed in reply.

Answered cases to consult:
>>> test_result("CAAACTAGGGCACCGGAAGGTCAAAGTCCGCATG")
0.924
>>> test_result("CCTACTGGGCCAAAAACGTCATTGATGCCGATAA")
-0.47
>>> test_result("TCTTGTAGATCAGCAGGTTAAGAAGGCTGGCCAA")
-0.361
>>> test_result("TAGCCTAGGTCATGCGCCAGTATACCACGCGAAC")
1.31
>>> test_result("CCTACTGGGCCACGAAAGGTCATTGGTTCAGTGA")
1.18

The reported PBM binding z-score of the sequence CCGAGTAGGTTATTGGGCATTCAGGCAACGGTGA was 0.103

The reported PBM binding z-score of the sequence CCAAGCAGGCCAGGGTCACTCAAGCATTTCGCTT was 1.15

The reported PBM binding z-score of the sequence CTCGAAATGTCGGTTGAGGTGAGTATACGGATAA was 1.36

The reported PBM binding z-score of the sequence GGAACGAGGGCAAAGTTGTTAGCATCTGTCGACG was -0.449

The reported PBM binding z-score of the sequence TCGAGTAGGTTACCAATGGGCCATTCAGCTTTCT was -0.731

The reported PBM binding z-score of the sequence CCTTACGTGTCACGAGGTTATAGCACGACGAGCG was 0.982

The reported PBM binding z-score of the sequence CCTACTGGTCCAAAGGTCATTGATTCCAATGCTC was 1.49

The reported PBM binding z-score of the sequence CCAGACAGGTGAAAGGTAACGCAGTCTGGTACGC was -0.07

The reported PBM binding z-score of the sequence CGTCCAAGGTCAAAGGTTAGTGAAGAGATGACGG was 2.53

The reported PBM binding z-score of the sequence AGAATGAGGTTAAAATCAGGGAAACAGAATACAT was 0.43

The reported PBM binding z-score of the sequence TCTTGTACATCAGCAGGTTAAGAAAGCTGGCCAA was -0.157

The reported PBM binding z-score of the sequence TCTTGTAGCTCAAGCAGGTTAAGAAAGCCTGAGT was -1.07

The reported PBM binding z-score of the sequence AGTCAAAGTTCATCTAGGGAACGTAAGATATGCT was -0.658

The reported PBM binding z-score of the sequence ATCTCTAGGTAACCAAGTTCAGAGAATGCCGAAC was 0.471

The reported PBM binding z-score of the sequence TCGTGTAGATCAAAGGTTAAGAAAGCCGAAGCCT was 0.108

The reported PBM binding z-score of the sequence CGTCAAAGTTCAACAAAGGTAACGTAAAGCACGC was 0.367

The reported PBM binding z-score of the sequence GCTGCTAGGTCTACTGATGGTCAGCTAAAGCTCG was -0.572

The reported PBM binding z-score of the sequence CCAGACAGGTGTAAGGTAACTCAGTCTGGTACGC was 1.21

###

system: PPARg homodimer (NR concentration 180 nM); assay: PBM binding z-score (relative to random genomic background probes); higher = stronger binding; sequences stand for … in GC…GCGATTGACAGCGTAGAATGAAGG
readout label: PBM binding z-score
A bare number is all that is needed in reply.

Answered cases to consult:
>>> test_result("CCTCGGAGGCCAGAAGGTCAGAGCTGTCCGCTTT")
0.843
>>> test_result("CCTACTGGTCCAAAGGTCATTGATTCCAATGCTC")
3.79
>>> test_result("CGACCTAGGTCATCCAGGACAGTGAATACATTGA")
2.02
>>> test_result("CCTACTGGGCCATTCAGGGGTCATTGATCATATG")
2.13
>>> test_result("TATACAGGGTCAAAGGCCAGAGCACGAATGTCGA")
1.83

The reported PBM binding z-score of the sequence ATATCTAGGTAAGACTCAGTTCAGTGAAGAACGC was 0.747

The reported PBM binding z-score of the sequence CCGACTGTGGCATAAGGTTACCATAAGCCAGCCC was 0.621

The reported PBM binding z-score of the sequence AGAATGAGGTTATACGTAGTTCAGGGAAGAAAGT was 0.814

The reported PBM binding z-score of the sequence CAAACTAGGTAAAGAGGTCAAAGTCCGCTTCCCG was 5.18
